Tested on: HS 578T breast
Experiment: NCI tumour cell line growth inhibition, 48 h
This listing pairs compounds with measured TGI.

CC1(COS(=O)(=O)OCC2(C)COS(=O)(=O)OC2)COS(=O)(=O)OC1; > 100 µM
O=C1/C(=C2\Sc3c(ccc(Cl)c3Cl)C2=O)Sc2c1ccc(Cl)c2Cl; > 100 µM

## Task Fill in: TGI of C[n+]1c2ccccc2c(C(=O)Nc2ccc(S(=O)(=O)N=C(N)N)cc2)c2ccccc21 is ___
## Result > 100 µM

## Task // query: NC(N)=NS(=O)(=O)c1ccc(NC(=O)c2ccc3nc4ccccc4c(Nc4ccc(S(N)(=O)=O)cc4)c3c2)cc1
## Result > 100 µM

## Task // query: O=C(NCc1ccc(Cl)cc1)c1cc2sccc2nc1C(F)(F)F
## Result 47.6 µM

###

Tested on: TK-10 renal
Assay: NCI tumour cell line growth inhibition, 48 h
measured metric: TGI

# annotated cases, reported TGI shown
C/C(O)=C/c1nc2ccc([N+](=O)[O-])cc2nc1/C=C(/C)O; > 100 µM
CC(C)Oc1cc(O)c2c(c1)OCC=C2CCC(=O)O; 76.8 µM
O=C1c2cccc3cccc(c23)C(=O)N1CCCNOCCONCCCN1C(=O)c2cccc3cccc(c23)C1=O; > 100 µM
CCOC(=O)COS(=O)(=O)C(F)(F)F; > 100 µM
Nc1nc(CCC(=O)Nc2cccc(C(F)(F)F)c2)cc(-c2ccc3ccccc3c2)n1; > 100 µM

Moving on to the next molecule.
## Task Fill in: TGI of C[C@]12CC[C@H](O)CC1=CC[C@@H]1[C@@H]2CC[C@]2(C)/C(=N/OCCN3CCCC3)CC[C@@H]12 is ___
## Result 63.6 µM

###

System: KM12 colon
Assay: NCI tumour cell line growth inhibition, 48 h
This listing pairs compounds with measured TGI.

## Task // lookup TGI | system=KM12 colon | key= O=[N+]([O-])c1ccc2c(c1)[O][Sn][O]2
## Result > 150 µg/mL

## Task // query: CC(=O)N1CCN(C23OC4(N5CCN(C(C)=O)CC5)C5C6CC(C7C6C4C72)C53)CC1 (stereo not given)
## Result > 100 µM

## Task // query: COc1ccc(Cn2c(Cl)c(/C=C3/C(=O)Nc4ccccc43)c3cc(OC)c(C)cc32)cc1
## Result 23.8 µM

## Task // query: Clc1ccc(N=c2oc3ccccc3cc2-c2nc3ccccc3[nH]2)c(Cl)c1
## Result > 100 µM

###

Tested on: HCT-116 colon
Test: NCI tumour cell line growth inhibition, 48 h
measured metric: TGI

# annotated cases, reported TGI shown
O=c1[nH]c(Nc2cccc(Cl)c2)nc2nc[nH]c12; > 100 µM
CCc1c(C)c(C#N)c(=S)n(C2OC(CO)C(O)C(O)C2O)c1C (centres undefined); > 100 µM
O=C1/C(=C2\Sc3c(ccc(Cl)c3Cl)C2=O)Sc2c1ccc(Cl)c2Cl; > 100 µM

## Task // lookup TGI | system=HCT-116 colon | key= C[C-](O)O.O/C(=C\[C-](O)c1ccccc1)c1ccccc1.O/C(=C\[C-](O)c1ccccc1)c1ccccc1.[Nd+3] (centres undefined)
## Result 16.5 µM

###

System: OVCAR-4 ovarian
Assay: NCI tumour cell line growth inhibition, 48 h; in the data active = GI50 below about 0.43 µM; inactive = the rest
Please answer using one outcome listed in true = active, false = inactive

## Task Outcome? CCC(c1cccc(O)c1)C(CC)c1cccc(O)c1 (centres undefined)
## Result false

## Task // query: CC(=O)Nc1ccc(S(=O)(=O)NNC(=O)c2cccnc2Nc2ccc(Cl)cc2)cc1
## Result false

## Task // query: CC(C)(C)NC(=O)[C@H]1C[C@H]2CCCC[C@H]2CN1C[C@@H](O)[C@H](Cc1ccccc1)NC(=O)[C@H](CC(N)=O)NC(=O)c1ccc2ccccc2n1
## Result false

## Task // query: CSc1ccc(/C=C2\C=C(CC(=O)NCc3ccc(C(=O)c4ccccc4)cc3)c3cc(F)ccc32)cc1
## Result true
